Values were extracted from patent US5902812A.

# TARGET OR SYSTEM: PAI-1 (Homo sapiens)
# Sequence (P05121 24-402): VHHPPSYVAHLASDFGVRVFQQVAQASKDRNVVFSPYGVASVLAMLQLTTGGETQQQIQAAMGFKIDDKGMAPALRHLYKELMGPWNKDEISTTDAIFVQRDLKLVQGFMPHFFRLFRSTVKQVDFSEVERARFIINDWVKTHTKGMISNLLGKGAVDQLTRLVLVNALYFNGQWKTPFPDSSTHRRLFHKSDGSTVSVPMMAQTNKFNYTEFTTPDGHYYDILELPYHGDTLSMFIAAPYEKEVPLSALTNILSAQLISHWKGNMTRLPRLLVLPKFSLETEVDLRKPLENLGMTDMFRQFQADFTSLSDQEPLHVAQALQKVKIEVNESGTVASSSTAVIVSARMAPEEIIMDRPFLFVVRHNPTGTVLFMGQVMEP
# PROCEDURE SUMMARY: biochemical
# CONDITION CONTEXT: 20 μM (third part of Table 1); read-out: Degree of inhibition in PAI chromogenic substrate assay
METRIC NAME: inhibition at 20 µM (%)

• CN(C)CCCOc1ccc(/C=c2\[nH]c(=O)/c(=C/c3ccc(Br)cc3)[nH]c2=O)cc1 = 59
• CN(C)CCCOc1ccc(/C=c2\[nH]c(=O)/c(=C/c3ccc([N+](=O)[O-])cc3)[nH]c2=O)cc1 = 30
• CN(C)CCCOc1ccc(/C=c2\[nH]c(=O)/c(=C/c3ccc(C(=O)NCc4ccccc4)cc3)[nH]c2=O)cc1 = 40
• COC(=O)c1ccc(/C=c2\[nH]c(=O)/c(=C/c3ccc(OCCCN(C)C)cc3)[nH]c2=O)cc1 = 42
